So I've got a bunch of sequences here, and I need their pKd values.
Biological target: HLA-B*15:03
Experiment: IEDB peptide-MHC binding, purified MHC/competitive/radioactivity; filed as Kd, often an IC50 or EC50 that approximates it; bounds were set here for any values at or beyond the usual limits of such assays
Conditions: source organism: Vaccinia virus WR
Answers are plain numbers, as −log10 of the molar value.

Some sequences with recorded pKd:
> print(dat)
    polymer.sequence  system.under.test  reported.property  measured.value
 1         QLYSTLLSF        HLA-B*15:03                pKd            9.25
 2         ISSLGILVF        HLA-B*15:03                pKd            7.09
 3         ILHVDILSF        HLA-B*15:03                pKd            7.62
 4         SSVSPPNVL        HLA-B*15:03                pKd            7.74
 5         VEVEPGSSF        HLA-B*15:03                pKd            8.78
 6         FNVNGSQVY        HLA-B*15:03                pKd            6.58
 7         TKVMFVIRF        HLA-B*15:03                pKd            7.51
 8         FFLQRLYFL        HLA-B*15:03                pKd            6.09
 9         RQVVDFFKF        HLA-B*15:03                pKd            9.46
10         KKMTCGQPL        HLA-B*15:03                pKd            8.82

Here are 2 sequences. What values of pKd were reported for them?
1. FMTNFSMVY
2. EQYKTESFF

1: 8.65; 2: 8.74

* * *

Molecular target: HLA-B*44:03
Assay: IEDB peptide-MHC binding, purified MHC/competitive/radioactivity; filed as Kd, often an IC50 or EC50 that approximates it; bounds were set here for any values at or beyond the usual limits of such assays
Settings: source organism: Mammarenavirus guanaritoense
pKd: −log10 of the molar value.
REPORTED_PROPERTY: pKd

Identify measured pKd corresponding to "PECSDSPLVL"
≤ 4.15

* * *

Biological target: HLA-C*05:01
Test: IEDB peptide-MHC binding, purified MHC/direct/fluorescence; filed as Kd, often an IC50 or EC50 that approximates it; bounds were set here for any values at or beyond the usual limits of such assays
Settings: source organism: Yellow fever virus 1899/81
pKd: −log10 of the molar value.
REPORTED_PROPERTY: pKd

Identify pKd associated with the sequence "RADEINAIL"
≥ 9.00

* * *

Target: HLA-B*15:01
Assay: IEDB peptide-MHC binding, purified MHC/competitive/fluorescence; filed as Kd, often an IC50 or EC50 that approximates it; bounds were set here for any values at or beyond the usual limits of such assays
Conditions: source organism: West Nile virus
REPORTED_PROPERTY: pKd
Give bare numbers, as −log10 of the molar value.

Please report pKd for the following sequence: "FLCDDTITY"
6.53

* * *

Biological target: HLA-B*18:01
Experiment: IEDB peptide-MHC binding, purified MHC/direct/fluorescence; filed as Kd, often an IC50 or EC50 that approximates it; bounds were set here for any values at or beyond the usual limits of such assays
Details: source organism: Squirrelpox virus
REPORTED_PROPERTY: Kd

GET Kd where system = HLA-B*18:01 and item = "MACHRVLTY"
≥ 20 µM

* * *

Target: HLA-B*40:01
Test: IEDB peptide-MHC binding, purified MHC/direct/fluorescence; filed as Kd, often an IC50 or EC50 that approximates it; bounds were set here for any values at or beyond the usual limits of such assays
Conditions: source organism: Ebola virus - Gabon (1994-1997)
REPORTED_PROPERTY: pKd
Answers are plain numbers, as −log10 of the molar value.

Find the measured pKd of "KQIPIWLPL" and report it.
9.05

* * *

Target: HLA-A*03:01
Experiment: IEDB peptide-MHC binding, purified MHC/competitive/radioactivity; filed as Kd, often an IC50 or EC50 that approximates it; bounds were set here for any values at or beyond the usual limits of such assays
Settings: source organism: Lymphocytic choriomeningitis virus (strain Traub)
pKd: −log10 of the molar value.
REPORTED_PROPERTY: pKd

Please tell me the measured pKd for "KCHDHYLCRH" ; system: HLA-A*03:01.
≤ 4.61

* * *

Biological target: HLA-A*02:06
Experiment: IEDB peptide-MHC binding, purified MHC/competitive/radioactivity; filed as Kd, often an IC50 or EC50 that approximates it; bounds were set here for any values at or beyond the usual limits of such assays
Details: source organism: Lassa virus Josiah
REPORTED_PROPERTY: Kd (nM)
Give bare numbers, in nM.

Enter recorded Kd with HLA-A*02:06 for "IMTSYQYLI" here.
597

* * *

Target: HLA-A*02:16
Test: IEDB peptide-MHC binding, purified MHC/competitive/fluorescence; filed as Kd, often an IC50 or EC50 that approximates it; bounds were set here for any values at or beyond the usual limits of such assays
Conditions: source organism: Listeria monocytogenes serotype 4b str. H7858
pKd: −log10 of the molar value.
REPORTED_PROPERTY: pKd

Using the record for "ITWPRTRHW" , state its measured pKd.
≤ 4.70

* * *

Target: HLA-A*11:01
Assay: IEDB peptide-MHC binding, purified MHC/direct/fluorescence; filed as Kd, often an IC50 or EC50 that approximates it; bounds were set here for any values at or beyond the usual limits of such assays
Settings: source organism: West Nile virus
REPORTED_PROPERTY: Kd

Given the sequence "FVDVGVSAL" , write its reported Kd.
≥ 20 µM

* * *

Biological target: HLA-A*02:12
Assay: IEDB peptide-MHC binding, purified MHC/direct/fluorescence; filed as Kd, often an IC50 or EC50 that approximates it; bounds were set here for any values at or beyond the usual limits of such assays
Conditions: source organism: West Nile virus strain PTRoxo
REPORTED_PROPERTY: Kd

// fetch Kd given entry "MTRGLLGSY"
≥ 20 µM

* * *

Target: HLA-A*33:01
Experiment: IEDB peptide-MHC binding, purified MHC/competitive/radioactivity; filed as Kd, often an IC50 or EC50 that approximates it; bounds were set here for any values at or beyond the usual limits of such assays
Details: source organism: Lymphocytic choriomeningitis virus (strain Armstrong)
pKd: −log10 of the molar value.
REPORTED_PROPERTY: pKd

Look up pKd of "STLLTWHMH" and report it.
≤ 4.11

* * *

Molecular target: HLA-B*07:02
Test: IEDB peptide-MHC binding, purified MHC/competitive/fluorescence; bounds were set here for any values at or beyond the usual limits of such assays
Conditions: source organism: H1N1 subtype Influenza A/Oklahoma/7485/01
REPORTED_PROPERTY: IC50

Give reported IC50 value for "AAEAMEVA"
≥ 1 mM

* * *

Target: HLA-A*68:02
Test: IEDB peptide-MHC binding, purified MHC/direct/fluorescence; filed as Kd, often an IC50 or EC50 that approximates it; bounds were set here for any values at or beyond the usual limits of such assays
Conditions: source organism: Cowpox virus
pKd: −log10 of the molar value.
REPORTED_PROPERTY: pKd

For "RHDITGFIL" , write its pKd.
≤ 4.70

* * *

Target: HLA-B*27:05
Experiment: IEDB peptide-MHC binding, purified MHC/competitive/fluorescence; filed as Kd, often an IC50 or EC50 that approximates it; bounds were set here for any values at or beyond the usual limits of such assays
Conditions: source organism: Bacillus cereus H3081.97
REPORTED_PROPERTY: pKd
Give bare numbers, as −log10 of the molar value.

Could you please provide reported pKd for "VRFANELSF" ? Thanks!
7.00

* * *

Target: HLA-A*01:01
Experiment: IEDB peptide-MHC binding, purified MHC/direct/fluorescence; filed as Kd, often an IC50 or EC50 that approximates it; bounds were set here for any values at or beyond the usual limits of such assays
Conditions: source organism: Haemophilus influenzae
pKd: −log10 of the molar value.
REPORTED_PROPERTY: pKd

Give measured pKd for every item shown.
1. YATVAGHEG
2. EIKFNDITF

["≤ 4.70", "≤ 4.70"]

* * *

Molecular target: HLA-A*68:01
Assay: IEDB peptide-MHC binding, purified MHC/competitive/radioactivity; filed as Kd, often an IC50 or EC50 that approximates it; bounds were set here for any values at or beyond the usual limits of such assays
Settings: source organism: Vaccinia virus Copenhagen
REPORTED_PROPERTY: pKd
Give bare numbers, as −log10 of the molar value.

Respond only with pKd recorded for "SSSLDQTHIK"
6.07

Origin of measurements: the Immune Epitope Database (IEDB)
